Tested on: MOLT-4 leukemia
Test: NCI tumour cell line growth inhibition, 48 h
Endpoint label: GI50

-- ask Provide GI50 value for the following compound: CCCCN1C=CCN(CCCC)C1
-- reply 60.7 µM

-- ask Provide GI50 value for the following compound: Nc1nc(SCc2ccccc2)nc2[nH]ncc12
-- reply 25.7 µM

-- ask Provide GI50 value for the following compound: N#Cc1cc(-c2ccnc(Nc3ccc(NC(=O)CCl)cc3)n2)ccc1N1CCCC1
-- reply 2.42 µM

###

Test system: HCT-116 colon
Experiment: NCI tumour cell line growth inhibition, 48 h
I'd be grateful if you could share measured TGI for these entries.

-- ask Provide TGI value for the following compound: NC(N)=Nc1ccc(CC(N)C(=O)NCC(=O)C(CC(=O)O)c2ncc(NC(=O)C(F)(F)F)o2)cc1 (configuration not stated)
-- reply > 25 µM

-- ask Provide TGI value for the following compound: O=C(Nc1ccn(C2CCC(CO)O2)c(=O)n1)c1ccccc1 (configuration not stated)
-- reply > 100 µM

-- ask Provide TGI value for the following compound: CCOC(=O)c1cc(C(=O)c2cc(OC)cc(OC)c2)n2nc(C)ccc12
-- reply > 100 µM

-- ask Provide TGI value for the following compound: COc1cccc(-c2nc(-c3cnccn3)n(C3OC(CO)C(O)C3O)n2)c1 (configuration not stated)
-- reply > 100 µM

-- ask Provide TGI value for the following compound: COc1cccc2c1C(=O)c1c(O)c3c(c(O)c1C2=O)C[C@@](O)(C(=O)CO)C[C@@H]3OC1CC(N(C)C)C(O)C(C)O1 (some centres not stated)
-- reply 12.3 µM

-- ask Provide TGI value for the following compound: COc1cccc(-c2nnc3c(-c4ccccc4)nc4ccccc4n23)c1
-- reply > 100 µM

-- ask Provide TGI value for the following compound: CN(C)CCCNc1nc2ccccc2c2c(=O)c3cc(F)ccc3sc12
-- reply 3.19 µM

-- ask Provide TGI value for the following compound: Cc1ccc(O)c(-c2cc(-c3cccc(Br)c3)c(C#N)c(N)n2)c1
-- reply 42.4 µM

-- ask Provide TGI value for the following compound: CCn1cc(C(=O)O)c(=O)c2ccc(C)nc21
-- reply > 100 µM

-- ask Provide TGI value for the following compound: COC(=O)CCCC(=O)C1=Nc2ccccc2CN(c2ccc(Cl)cc2)N1
-- reply > 100 µM

-- ask Provide TGI value for the following compound: C=CCN1C(=O)CNC1=S
-- reply > 100 µM

-- ask Provide TGI value for the following compound: COC(=O)C1=C(C(=O)OC)SC2(S1)C1=C(CCC1)SC(C(=O)OC)=C2C(=O)OC
-- reply 3.65 µM

-- ask Provide TGI value for the following compound: COc1cc(/C=C/c2cc(/C=C/c3ccc(O)c(OC)c3)n(C(=O)Cc3ccccc3)n2)ccc1O
-- reply 6.76 µM

-- ask Provide TGI value for the following compound: NCCCNC(=O)c1csc(NC(=O)c2csc(NC(=O)CCCN)n2)n1
-- reply > 100 µM

-- ask Provide TGI value for the following compound: COC1=CC(=O)c2c(c(-c3csc(C)n3)cn2C)C1=O
-- reply > 77.5 µM

-- ask Provide TGI value for the following compound: NCCC1([N+](=O)[O-])C=CN=CC1 (configuration not stated)
-- reply > 100 µM

-- ask Provide TGI value for the following compound: N#CC1=C(N)OC2=C(CCCc3ccc([N+](=O)[O-])cc32)C1c1ccccc1 (configuration not stated)
-- reply 16 µM

###

Test system: ACHN renal
Assay: NCI tumour cell line growth inhibition, 48 h
Endpoint label: TGI (µM)
Write down the numeric answer in µM and omit the unit.

-- ask Provide TGI value for the following molecule: Cn1c([N+](=O)[O-])cnc1/C=C1\Oc2ccc(Br)cc2C1=O
-- reply 0.585

-- ask Provide TGI value for the following molecule: COc1cc(/C=C/[N+](=O)[O-])c([N+](=O)[O-])cc1OC
-- reply 2.9

-- ask Provide TGI value for the following molecule: COc1cc(C(=O)/C=C/c2c(-c3cccs3)nc3sccn23)cc(OC)c1OC
-- reply 7.52

-- ask Provide TGI value for the following molecule: CO[C@H]1/C=C/[C@@](C)(O)/C=C/C(=O)O[C@H](C)[C@@H](C)CC/C=C/1C
-- reply 55.9

###

Tested on: LOX IMVI melanoma
Test: NCI tumour cell line growth inhibition, 48 h
I'd be grateful if you could share measured GI50 for these entries.

-- ask Provide GI50, recorded with LOX IMVI melanoma, of CC(=O)c1ccc(Nc2cc(-n3nnc4ccccc43)nc3ccccc23)cc1
-- reply 13.4 µM

-- ask Provide GI50, recorded with LOX IMVI melanoma, of O=c1[nH]cnc2c1ncn2C1CCC(CO)O1 (centres undefined)
-- reply > 1000 µM

-- ask Provide GI50, recorded with LOX IMVI melanoma, of C=C1C(O)C2C(=C(CC(C)C)C13CC3)C(=O)C(C)(C)C2O (centres undefined)
-- reply > 100 µM

-- ask Provide GI50, recorded with LOX IMVI melanoma, of CN(C)CCNc1c2c(c(NCCN(C)C)c3c(CN(C)C)c[nH]c13)C(=O)c1ccccc1C2=O
-- reply 1.05 µM

###

I'd be grateful if you could share measured TGI for these entries.
System: HL-60(TB) leukemia
Assay: NCI tumour cell line growth inhibition, 48 h

-- ask Provide TGI value for the following molecule: CS(=O)(=O)OCOS(C)(=O)=O
-- reply > 100 µM

-- ask Provide TGI value for the following molecule: C#CCn1c(=O)[nH]c(=O)c2cccnc21
-- reply > 100 µM

-- ask Provide TGI value for the following molecule: CCCCCCCCCCCC(=O)N(CCCCCCCCCCC(=O)O)CC(O)C(O)C(OC1OC(CO)C(O)C(O)C1O)C(O)CO (configuration not stated)
-- reply > 100 µM

-- ask Provide TGI value for the following molecule: Cn1cc(-c2csc(-c3c[nH]c4ccc(F)cc34)n2)c2cccnc21
-- reply > 100 µM

-- ask Provide TGI value for the following molecule: CC(C)(C)[Si](C)(C)OC1(CCc2ccccc2OS(=O)(=O)C(F)(F)F)CCCC=C1COCc1ccccc1 (configuration not stated)
-- reply > 55.3 µM

-- ask Provide TGI value for the following molecule: Cc1ccc(S(=O)(=O)N/N=C2/C3CCC(C3)C2c2ccccc2)cc1 (configuration not stated)
-- reply > 100 µM

-- ask Provide TGI value for the following molecule: Cc1cc2c(cc1O)[nH]c1cc3c(cc12)C=CC(C)(C)O3
-- reply > 25 µM

-- ask Provide TGI value for the following molecule: Cc1cccc(C)c1NC(=O)CCC(=O)NNc1nnc(C)n1N
-- reply > 100 µM

-- ask Provide TGI value for the following molecule: Nc1cnc(Nc2cccc3ccccc23)o1
-- reply > 10 µM

-- ask Provide TGI value for the following molecule: Cn1c(C2CCCc3c2c2ccccc2n3C)cc2ccccc21 (configuration not stated)
-- reply > 318 µM

-- ask Provide TGI value for the following molecule: CCOC(=O)c1csc(NC(=O)CN2CCN(c3ccccc3)CC2)n1
-- reply > 100 µM

-- ask Provide TGI value for the following molecule: O=C(Nc1ccn(C2CCC(CO)O2)c(=O)n1)c1ccccc1 (configuration not stated)
-- reply > 100 µM

###

Tested on: M14 melanoma
Assay: NCI tumour cell line growth inhibition, 48 h
I'd be grateful if you could share measured TGI for these entries.

-- ask Provide TGI value for the following compound: Cc1ccc(O)c(-c2cc(-c3cccc(Br)c3)c(C#N)c(N)n2)c1
-- reply 89.2 µM

-- ask Provide TGI value for the following compound: Nc1ccc(Sc2nnc(N)s2)cc1
-- reply > 100 µM

-- ask Provide TGI value for the following compound: CN(C)/C=N/S(=O)(=O)c1nn2c(C=O)c(-c3ccccc3)nc2s1
-- reply 14.8 µM

-- ask Provide TGI value for the following compound: Cc1cn(CC2=NCC(O)CN2)c(=O)[nH]c1=O (stereo unspecified)
-- reply > 100 µM

-- ask Provide TGI value for the following compound: Clc1ccc(-c2nc3ccc(Cl)cc3[nH]2)cc1
-- reply > 100 µM

-- ask Provide TGI value for the following compound: O=C1c2ccc3c4ccc5c6c(ccc(c7ccc(c2c37)C(=O)N1CCN1CCCCC1)c64)C(=O)N(CCN1CCCCC1)C5=O
-- reply > 100 µM

-- ask Provide TGI value for the following compound: Cc1cc(C)nc(NS(=O)(=O)c2ccc(NC(=O)c3cccc4c(Nc5ccc(S(=O)(=O)N=C(N)N)cc5)c5ccccc5nc34)cc2)n1
-- reply > 100 µM

-- ask Provide TGI value for the following compound: O=C1CC(=O)c2c(N3CCCC3)sc(N3CCCC3)c21
-- reply > 100 µM

-- ask Provide TGI value for the following compound: COc1cc2c(cc1OCCCCCN1C(=O)c3cccc4cccc(c34)C1=O)N=C[C@@H]1CCCN1C2=O
-- reply 0.349 µM

-- ask Provide TGI value for the following compound: N#CC1=C(N)OC2=C(CCCc3ccc([N+](=O)[O-])cc32)C1c1ccccc1 (stereo unspecified)
-- reply 12.4 µM

-- ask Provide TGI value for the following compound: Cc1ccccc1NC(=O)C(=O)C1CN(c2ccccc2)N=C1N (stereo unspecified)
-- reply > 100 µM

-- ask Provide TGI value for the following compound: FC(F)(F)c1cccc(C=NC23CC4CC(CC(C4)C2)C3)c1
-- reply > 100 µM

-- ask Provide TGI value for the following compound: CCOc1ccccc1/C=C(/C#N)C(N)=O
-- reply > 100 µM

-- ask Provide TGI value for the following compound: C[Si](C)(C)CNC(=O)OCc1ccccc1
-- reply > 100 µM

-- ask Provide TGI value for the following compound: N#Cc1cc(-c2ccnc(Nc3ccc(NC(=O)CCl)cc3)n2)ccc1N1CCCC1
-- reply 1.49 µM

-- ask Provide TGI value for the following compound: COC(=O)C1=C(OC(=O)/C(=C/c2ccccc2)c2ccc([N+](=O)[O-])cc2)C(C(=O)OC)[C@@]2(O)[C@@H](C(=O)OC)[C@H](C)C[C@@H]1[C@@H]2C(=O)OC (stereo partly specified)
-- reply > 100 µM
